The values you see were collected from paper PMC9608142.

# assay-protocol: Population pharmacokinetic analysis (NONMEM) of polymyxin B plasma concentrations in lung transplant recipients
# Format: in vivo, human
# run-parameters: human, plasma, iv, present study, lung transplant patients, n = 34; read-out: CL (PK Parameters) (converted)
Bridge positions count the residues as written; N and C are the ends. Square brackets hold non-standard residues; d marks the D form. Peptide text beside a SMILES is read from it. * marks the point of attachment. X1 = CC[C@H](C)CCCCC(=O)*; Dab = NCC[C@H](N)C(=O)O
measure: clearance (mL/min)
Form entry: value (mL/min) — number only.

The value of clearance measured for the molecule CC[C@H](C)CCCCC(=O)N[C@@H](CCN)C(=O)N[C@H](C(=O)N[C@@H](CCN)C(=O)N[C@H]1CCNC(=O)[C@H]([C@@H](C)O)NC(=O)[C@H](CCN)NC(=O)[C@H](CCN)NC(=O)[C@H](CC(C)C)NC(=O)[C@@H](Cc2ccccc2)NC(=O)[C@H](CCN)NC1=O)[C@@H](C)O [polymyxin B] (X1-[Dab]T[Dab][Dab][Dab][dF]L[Dab][Dab]T; lactam 4-C) turned out to be 31.2

====

# assay-protocol: Population pharmacokinetic analysis (NONMEM) of polymyxin B plasma concentrations in lung transplant recipients
# Type: in vivo, human
# run-parameters: human, plasma, iv, base model estimate (no covariate); read-out: TVCL, typical value of clearance (converted)
# Procedure: This prospective study was approved by the Ethical Committees of the affiliated Wuxi People’s Hospital of Nanjing Medical University, China (KS202002), in accordance with the Declaration of Helsinki. […] All the blood samples were collected at least 48 h after initiating polymyxin B ([Tsuji et al., 2019]). […] The concentrations of polymyxin B in the blood samples were determined by a validated high-performance liquid chromatography-tandem mass spectrometry (LC-MS/MS) assay ([Thomas et al., 2012]). […]
Bridge positions count the residues as written; N and C are the ends. Square brackets hold non-standard residues; d marks the D form. Peptide text beside a SMILES is read from it. * marks the point of attachment. X1 = CC[C@H](C)CCCCC(=O)*; Dab = NCC[C@H](N)C(=O)O
measure: clearance (mL/min)
Form entry: value (mL/min) — number only.

The value of clearance measured for the compound CC[C@H](C)CCCCC(=O)N[C@@H](CCN)C(=O)N[C@H](C(=O)N[C@@H](CCN)C(=O)N[C@H]1CCNC(=O)[C@H]([C@@H](C)O)NC(=O)[C@H](CCN)NC(=O)[C@H](CCN)NC(=O)[C@H](CC(C)C)NC(=O)[C@@H](Cc2ccccc2)NC(=O)[C@H](CCN)NC1=O)[C@@H](C)O [polymyxin B] (X1-[Dab]T[Dab][Dab][Dab][dF]L[Dab][Dab]T; lactam 4-C) turned out to be 27.5
